# TARGET UNDER TEST: MOP receptor (Homo sapiens, UniProt P35372)
# Construct: expressed in transfected cells; host or cells: HEK293
# Sequence (P35372 whole entry): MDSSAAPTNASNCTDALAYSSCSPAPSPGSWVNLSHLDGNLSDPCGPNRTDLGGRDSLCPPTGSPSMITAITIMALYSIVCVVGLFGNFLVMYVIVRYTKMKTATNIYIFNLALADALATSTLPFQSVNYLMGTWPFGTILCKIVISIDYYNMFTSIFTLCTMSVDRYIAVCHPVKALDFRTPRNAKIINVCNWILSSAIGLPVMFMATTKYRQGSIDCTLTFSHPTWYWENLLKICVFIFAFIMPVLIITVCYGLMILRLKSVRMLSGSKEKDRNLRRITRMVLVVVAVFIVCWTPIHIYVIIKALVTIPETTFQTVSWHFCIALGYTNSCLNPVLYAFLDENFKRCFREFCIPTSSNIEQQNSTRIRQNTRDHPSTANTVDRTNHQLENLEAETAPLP
# PROTOCOL SUMMARY: cell-based
pEC50: −log10 of the molar value. Where a SMILES comes first, the peptide text is derived from it. [ ]: non-standard residue; d: D form. Phe(4-NO2) = N[C@@H](Cc1ccc([N+](=O)[O-])cc1)C(=O)O; Phe(4-Cl) = N[C@@H](Cc1ccc(Cl)cc1)C(=O)O; Phe(4-F) = N[C@@H](Cc1ccc(F)cc1)C(=O)O; NMeR = CN[C@@H](CCCNC(=N)N)C(=O)O; Aoc = NCCCCCCCC(=O)O; Sar = CNCC(=O)O
# pEC50 listing for each entry below

# MOLECULE, ENDPOINT RESULT
data = [
    ("CC(C)C[C@H](NC(=O)[C@H](Cc1ccc(F)cc1)NC(=O)CN(C)C(=O)[C@@H](N)Cc1ccc(O)cc1)C(=O)N[C@@H](CCCNC(=N)N)C(=O)N[C@H](CCCNC(=N)N)C(N)=O [KA207] (H-Y[Sar][Phe(4-F)]LR[dR]-NH2)", 5.46),
    ("C[C@@H](O)[C@H](NC(=O)[C@H](Cc1ccc(Cl)cc1)NC(=O)CN(C)C(=O)[C@@H](N)Cc1ccc(O)cc1)C(=O)N[C@@H](CCCNC(=N)N)C(=O)N[C@H](CCCNC(=N)N)C(N)=O [KA308] (H-Y[Sar][Phe(4-Cl)]TR[dR]-NH2)", 5.23),
    ("CC(C)C[C@H](NC(=O)[C@H](Cc1ccccc1)NC(=O)CN(C)C(=O)[C@@H](N)Cc1ccc(O)cc1)C(=O)N[C@@H](CCCNC(=N)N)C(=O)N[C@H](CCCNC(=N)N)C(N)=O [KA203] (H-Y[Sar]FLR[dR]-NH2)", "< 5.00"),
    ("CC(C)C[C@H](NC(=O)[C@H](Cc1ccc([N+](=O)[O-])cc1)NC(=O)CN(C)C(=O)[C@@H](N)Cc1ccc(O)cc1)C(=O)N(C)[C@@H](CCCNC(=N)N)C(=O)N[C@H](CCCNC(=N)N)C(N)=O [KA303] (H-Y[Sar][Phe(4-NO2)]L[NMeR][dR]-NH2)", "< 5.00"),
    ("CC(C)C[C@H](NC(=O)[C@H](Cc1ccc(Cl)cc1)NC(=O)CN(C)C(=O)[C@@H](N)Cc1ccc(O)cc1)C(=O)N[C@@H](CCCNC(=N)N)C(=O)N(C)[C@@H](CCCNC(=N)N)C(=O)NCCCCCCCC(N)=O [KA312] (H-Y[Sar][Phe(4-Cl)]LR[NMeR][Aoc]-NH2)", "< 5.00"),
    ("CC(C)C[C@H](NC(=O)[C@H](Cc1ccc([N+](=O)[O-])cc1)NC(=O)CN(C)C(=O)[C@@H](N)Cc1ccc(O)cc1)C(=O)N[C@@H](CCCNC(=N)N)C(=O)N[C@H](CCCNC(=N)N)C(N)=O [KA204] (H-Y[Sar][Phe(4-NO2)]LR[dR]-NH2)", "< 5.00"),
    ("CC(C)C[C@H](NC(=O)[C@H](Cc1ccc(Cl)cc1)NC(=O)CN(C)C(=O)[C@@H](N)Cc1ccc(O)cc1)C(=O)N[C@@H](CCCNC(=N)N)C(=O)N[C@H](CCCNC(=N)N)C(N)=O [KA206] (H-Y[Sar][Phe(4-Cl)]LR[dR]-NH2)", "< 5.00"),
    ("CC(C)C[C@H](NC(=O)[C@H](Cc1ccc(Cl)cc1)NC(=O)CN(C)C(=O)[C@@H](N)Cc1ccc(O)cc1)C(=O)N[C@@H](CCCCN)C(=O)N[C@H](CCCNC(=N)N)C(N)=O [KA306] (H-Y[Sar][Phe(4-Cl)]LK[dR]-NH2)", "< 5.00"),
]

Then there is this molecule:
pEC50 reported for this molecule CC(C)C[C@H](NC(=O)[C@H](Cc1ccc([N+](=O)[O-])cc1)NC(=O)CNC(=O)CN(C)C(=O)[C@@H](N)Cc1ccc(O)cc1)C(=O)N[C@@H](CCCNC(=N)N)C(=O)N[C@H](CCCNC(=N)N)C(N)=O [KA202] : < 5.00
